Source: paper PMC11480844

B1: H2-Kb / Ed5 (parent complex)
chain 1: GDSVTQTEGPVTVSESESLIINCTYSATSIAYPNLFWYVRYPGEGLQLLLKVITAGQKGSSRGFEATYNKETTSFHLQKASVQESDSAVYYCALGSYNQGKLIFGQGTKLSIKP
chain 2: DTTVKQNPRYKLARVGKPVNLICSQTMNHDTMYWYQKKPNQAPKLLLFYYDKILNREADTFEKFQSSRPNNSFCSLYIGSAGLEYSAMYLCASSRRLGASQNTLYFGAGTRLSVL
chain 3: not shown
chain 4: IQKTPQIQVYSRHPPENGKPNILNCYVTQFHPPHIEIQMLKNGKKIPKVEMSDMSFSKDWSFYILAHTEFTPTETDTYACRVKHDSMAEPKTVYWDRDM
chain 5: SIINFEKL

- Variants of: B1
- Test Description: % of reporter cells activated (NFAT-GFP), raw; note: test concentration or dose not given here
Readout Name: ratio to parent

INSERT INTO results (changes, readout_name, reported) VALUES
  ('chain 5 K7W', 'ratio to parent', 0.543),
  ('chain 5 L8S', 'ratio to parent', 0.641),
  ('chain 5 S1A', 'ratio to parent', 0.322);

[P] chain 5 I3R
[Q] chain 5 K7A
// compare: P vs Q , metric ratio to parent, want the smaller In your reply, give the label of the chosen option.
P

[P] chain 5 I3E
[Q] chain 5 I2S
// pick min by ratio to parent: P , Q Write down the label of the entry you select.
P

[P] chain 5 I3V
[Q] chain 5 I2V
Among P and Q , which shows a numerically higher ratio to parent result? Refer to your chosen item by its label in the answer.
Q
(Q: 1.01, P: 0.661)

[A] chain 5 I3M
[B] chain 5 E6L
Among A and B , which shows a numerically higher ratio to parent result? Record your answer as the label of the chosen record.
A
(A: 0.723, B: 0.165)
